- SYSTEM UNDER TEST: GST-HuD (UniProt P26378)
- Sequence (P26378 whole entry): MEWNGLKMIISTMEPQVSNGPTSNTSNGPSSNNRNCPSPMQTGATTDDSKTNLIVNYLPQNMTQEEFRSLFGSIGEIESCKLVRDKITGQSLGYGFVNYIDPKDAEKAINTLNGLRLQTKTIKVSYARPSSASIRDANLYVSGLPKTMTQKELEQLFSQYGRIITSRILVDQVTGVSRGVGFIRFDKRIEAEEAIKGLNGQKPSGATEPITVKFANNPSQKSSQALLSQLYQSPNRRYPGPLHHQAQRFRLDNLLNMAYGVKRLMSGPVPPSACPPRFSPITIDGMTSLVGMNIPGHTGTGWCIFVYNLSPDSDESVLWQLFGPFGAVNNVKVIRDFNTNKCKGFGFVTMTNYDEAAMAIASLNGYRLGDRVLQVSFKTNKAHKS
- METHOD NOTES: filter binding
Listed sequences paired with reported Kd

SEQUENCE CODE | SYSTEM UNDER TEST | UNITS SYMBOL | Kd
UUUUGUUUUGUUU [motif 2 oligoribonucleotide] | GST-HuD (UniProt P26378) | nM | 6.9
CCCUCCCUCUCUC [motif 1 oligoribonucleotide] | GST-HuD (UniProt P26378) | nM | 27.3
